The entries below come with measured Ka values attached.
- Assay Explanation: Metal chelating activity of the compound assessed as formation of copper complex by fluorescence quenching assay
- Assay type: physicochemical
Answer format: numeric, L/mol implied, no suffix.

Completed entries (count: 2):
Chemical String | Ka, L/mol
COC(=O)[C@]1(C)CCC[C@]2(C)c3cc(NC(C)C)c([N+](=O)[O-])cc3C(=O)C[C@@H]12 | 102.9
CCCCNc1cc2c(cc1[N+](=O)[O-])C(=O)C[C@H]1[C@](C)(C(=O)OC)CCC[C@]21C | 137.2

Query `COC(=O)[C@]1(C)CCC[C@]2(C)c3cc(NC(C)(C)C)c([N+](=O)[O-])cc3C(=O)C[C@@H]12` yields Ka of 175.6

Data provenance is ChEMBL document CHEMBL3046298.
